Attribution: ChEMBL document CHEMBL3616399

# System: Aspergillus fumigatus
# PROTOCOL DESCRIPTION: Antifungal activity against Aspergillus fumigatus 7544 after 48 hrs by serial dilution method
# Type: functional
# DETAILS: Aspergillus fumigatus, 7544, 48 h
In plain terms, low MIC, meaning strictly below 8 µg/mL, gives 1.0, and everything else gives 0.0.

C[C@@H](N1Cc2cc(-c3ccncc3)sc2C1=O)[C@](O)(Cn1cncn1)c1ccc(F)cc1F: 1.0
C[C@@H](N1CCc2sc(-c3ccncc3)cc2C1)[C@](O)(Cn1cncn1)c1ccc(F)cc1F: 0.0
COc1ncc(-c2cc3c(s2)CN([C@H](C)[C@](O)(Cn2cncn2)c2ccc(F)cc2F)C3=O)cn1: 0.0
COc1ccc(-c2cc3c(s2)CN([C@H](C)[C@](O)(Cn2cncn2)c2ccc(F)cc2F)C3=O)cn1: 0.0
C[C@@H](N1Cc2sc(-c3cncnc3)cc2C1=O)[C@](O)(Cn1cncn1)c1ccc(F)cc1F: 0.0

Lookup: Item `C[C@@H](N1Cc2sc(-c3ccccc3)cc2C1=O)[C@](O)(Cn1cncn1)c1ccc(F)cc1F` : MIC beneath 8 µg/mL, strictly?
Found: 0.0

Lookup: Another compound: `C[C@@H](N1Cc2cc(-c3cccc(C#N)c3)sc2C1=O)[C@](O)(Cn1cncn1)c1ccc(F)cc1F`
Found: 1.0

Lookup: Another compound: `C[C@@H](N1Cc2sc(Br)cc2C1=O)[C@](O)(Cn1cncn1)c1ccc(F)cc1F`
Found: 0.0

Lookup: Another compound: `C[C@@H](N1Cc2cc(-c3cncnc3)sc2C1=O)[C@](O)(Cn1cncn1)c1ccc(F)cc1F`
Found: 1.0

Lookup: Another compound: `C[C@@H](N1Cc2cc(-c3ccc(F)cc3)sc2C1=O)[C@](O)(Cn1cncn1)c1ccc(F)cc1F`
Found: 1.0
